Attribution: patent US20240109910A1

Exercise: for every item that follows, state its recorded Emax.
molecular target: hCB1 receptor (Homo sapiens, UniProt P21554); assay: Agonism of CB1 by detection of cAMP using HTRF; type: cell-based; conditions: CHO cells stably expressing CB1 receptor; normalized to DMSO and maximal activation (5 nM CP55940)
Sequence (P21554 whole entry): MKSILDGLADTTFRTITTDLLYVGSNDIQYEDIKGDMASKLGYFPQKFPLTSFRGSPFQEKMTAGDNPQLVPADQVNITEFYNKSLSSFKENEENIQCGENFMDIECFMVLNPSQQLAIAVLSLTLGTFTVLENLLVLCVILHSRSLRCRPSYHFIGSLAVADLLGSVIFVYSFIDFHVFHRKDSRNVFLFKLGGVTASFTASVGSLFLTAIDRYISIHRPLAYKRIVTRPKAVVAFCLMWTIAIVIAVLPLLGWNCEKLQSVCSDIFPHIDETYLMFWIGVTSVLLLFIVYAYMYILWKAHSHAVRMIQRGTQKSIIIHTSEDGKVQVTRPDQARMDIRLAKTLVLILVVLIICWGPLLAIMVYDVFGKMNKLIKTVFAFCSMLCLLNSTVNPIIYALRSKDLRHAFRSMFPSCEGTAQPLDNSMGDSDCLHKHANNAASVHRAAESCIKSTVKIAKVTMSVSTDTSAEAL
Give bare numbers, in %.

For orientation, consider the following solved cases.
| compound | readout_value |
| --- | --- |
| CC(C)(C)c1noc(-c2nn(-c3c[n+]([O-])ccn3)c3c2CC2CCC3O2)n1 (stereo not shown) [Compound 26] | 73.3 |
| O=C(NC[C@]12C[C@@H]3C[C@@H](C[C@@H](C3)C1)C2)c1nn(-c2ccc(F)cc2F)c2c1CC1CCC2O1 [Compound 42] | 98.2 |
| O=C(NC12CC(C1)C2)c1nn(-c2cnccn2)c2c1CC1CCC2O1 (stereo not shown) [Compound 12] | 90.8 |
| O=C(NC12CC3CC(CC1C3)C2)c1nn(-c2cnccn2)c2c1CC1CCC2O1 (stereo not shown) [Compound 13] | 111 |
| CC(C)(C)c1noc(-c2nn(-c3cnccn3)c3c2CC2CCC3O2)n1 (stereo not shown) [Compound 37] | 34.8 |

Below are 5 compounds. Give each one its Emax.
1. CC(C)(C)NC(=O)c1nn(-c2c[n+]([O-])ccn2)c2c1CC1CCC2O1 (stereo not shown) [Compound 31]
2. O=C(NC12CCC(CC1)CC2)c1nn(-c2c[n+]([O-])ccn2)c2c1CC1CCC2O1 (stereo not shown) [Compound 22]
3. O=C(NC12CC(C1)C2)c1nn(-c2c[n+]([O-])ccn2)c2c1CC1CCC2O1 (stereo not shown) [Compound 20]
4. CC(C)(C)NC(=O)c1nn(-c2ccc(F)cc2F)c2c1CC1CCC2O1 (stereo not shown) [Compound 1]
5. CC(C)(C)NC(=O)c1nn(-c2cnccn2)c2c1CC1CCC2O1 (stereo not shown) [Compound 3]

83.2
96.5
91
99
94.8
